Source: ChEMBL document CHEMBL1201862

Tested on: SK-MEL-5
protocol notes: NCI tumour cell line growth inhibition, 48 h
Active and inactive are the calls of the source. No stated cut-off is given here; in the data, active = GI50 up to about 1.1 µM and inactive = higher.
Recorded GI50 by entry
test readout: GI50

INSERT INTO measurements (molecule, assay_target, test_readout, observed_result) VALUES
  ('O=C(Cn1c(C(=O)/C=C/c2ccc(Cl)cc2)nc2ccccc21)c1ccc(Cl)cc1', 'SK-MEL-5', 'GI50', '14.8 µM (inactive)'),
  ('CCOC(=O)c1csc(NC(=O)CCN2CCCC2)n1', 'SK-MEL-5', 'GI50', '> 100 µM (inactive)'),
  ('COc1cc(OC)c2c(=O)c(OC)c(-c3ccc4c(c3)OCO4)oc2c1', 'SK-MEL-5', 'GI50', '47.3 µM (inactive)'),
  ('CCOc1ccc(NC(=O)C(=O)CC(=O)c2sc(NNC(C)=O)nc2C)cc1', 'SK-MEL-5', 'GI50', '> 100 µM (inactive)'),
  ('Cc1ccc(NCCO)cc1', 'SK-MEL-5', 'GI50', '> 100 µM (inactive)'),
  ('NC1=Nc2ccccc2Sc2ccccc21', 'SK-MEL-5', 'GI50', '91.8 µM (inactive)'),
  ('C#Cc1cc(-c2nc3ccccc3s2)ccc1N', 'SK-MEL-5', 'GI50', '26.6 µM (inactive)'),
  ('O=C1N/C(=N/N=C/C(O)C(O)C(O)C(O)CO)N/C1=C\c1c[nH]c2ccccc12 (configuration not stated)', 'SK-MEL-5', 'GI50', '> 100 µM (inactive)'),
  ('C=C(C)C(=O)OC1CCC2(C)C(CCC3C2CCC2(C)C(c4ccc(=O)oc4)CC4OC432)C1 (configuration not stated)', 'SK-MEL-5', 'GI50', '3.8 µM (inactive)'),
  ('O=C(Nc1cc(C(=O)Nc2cccc(S(=O)(=O)O)c2)cc(C(=O)Nc2cccc(S(=O)(=O)O)c2)c1)c1cccc(C(=O)Nc2cc(C(=O)Nc3cccc(S(=O)(=O)O)c3)cc(C(=O)Nc3cccc(S(=O)(=O)O)c3)c2)c1', 'SK-MEL-5', 'GI50', '> 100 µM (inactive)'),
  ('CCCN1CN(C(C(=O)N[C@@H]2C(=O)N3C(C(=O)O)=C(C)CSC23)c2ccc(O)cc2)CSC1=S (some centres not stated)', 'SK-MEL-5', 'GI50', '> 100 µM (inactive)'),
  ('CC(C)C1CC(CO)(CNc2cc(Cl)nc(N)n2)C1 (configuration not stated)', 'SK-MEL-5', 'GI50', '3.55 µM (inactive)'),
  ('Nc1nc(-c2cccnc2)cc(-c2cc(-c3cccnc3)nc(N)n2)n1', 'SK-MEL-5', 'GI50', '> 100 µM (inactive)'),
  ('C/C(=N\NC(N)=O)C(CN1CCOCC1)C(c1ccccc1)c1c(O)c2ccccc2oc1=O (configuration not stated)', 'SK-MEL-5', 'GI50', '> 100 µM (inactive)'),
  ('COc1ccc(/C=N/NC(=O)NCCNCCO)cc1', 'SK-MEL-5', 'GI50', '> 100 µM (inactive)'),
  ('COC(=O)C1(C)CCCC2(C)c3cc(OC)ccc3C(=O)C(Br)C12 (configuration not stated)', 'SK-MEL-5', 'GI50', '> 10 µM (inactive)'),
  ('NC1=NS(=O)(=O)Nc2nc(-c3cccs3)[nH]c21', 'SK-MEL-5', 'GI50', '> 100 µM (inactive)'),
  ('Cc1ccc(NC(=O)CSc2nnc(Cc3ccccc3)o2)c(C)c1', 'SK-MEL-5', 'GI50', '> 100 µM (inactive)'),
  ('CCCCCCCCCCCCCCCCCCNc1ccn(C2OC(COP(=O)(O)OCC(COP(=O)(O)OCC3OC(n4cc(C)c(=O)[nH]c4=O)CC3N=[N+]=[N-])OCCCCCCCCCCCCCCCCCC)C(O)C2O)c(=O)n1 (configuration not stated)', 'SK-MEL-5', 'GI50', '86.5 µM (inactive)'),
  ('CC(NC(=O)C(N)Cc1ccc(O)cn1)C(=O)O (configuration not stated)', 'SK-MEL-5', 'GI50', '> 100 µM (inactive)'),
  ('O=C(Cc1nc2ccc([N+](=O)[O-])cc2nc1O)C(=O)Nc1ccccc1[N+](=O)[O-]', 'SK-MEL-5', 'GI50', '> 100 µM (inactive)'),
  ('Cc1ccc(/C=C/C(=O)c2sc(-c3cccnc3)nc2C)cc1', 'SK-MEL-5', 'GI50', '> 100 µM (inactive)');
